systemUnderTest: Mu-type opioid receptor (Homo sapiens)
measurementDescription: Agonist activity at human mu opioid receptor expressed in CHO cells by [35S]GTPgammaS binding assay relative to DAMGO
Assay type: functional, cell-based
parameter: Emax (%)
Your answer should be a plain number; it is taken to be in %.

C[C@@H]1CN(CCCc2ccccc2)[C@H]2C[C@H](N(C)CC3CC3)C[C@]1(c1cccc(O)c1)C2	109
C[C@@H]1CN(CCCc2ccccc2)[C@H]2C[C@H](N(C)C)C[C@]1(c1cccc(O)c1)C2	104

Prompt line: Given the entry `CCN(C)[C@H]1C[C@H]2C[C@@](c3cccc(O)c3)(C1)[C@H](C)CN2CCCc1ccccc1` , report its measured Emax.
Response line: 94

Prompt line: Requested read-out: Emax. Entry: `CCN[C@H]1C[C@H]2C[C@@](c3cccc(O)c3)(C1)[C@H](C)CN2CCCc1ccccc1`
Response line: 14

Prompt line: Fill blank: measured Emax of the compound `C[C@@H]1CN(CCCc2ccccc2)[C@H]2C[C@H](NCC3CC3)C[C@]1(c1cccc(O)c1)C2` is ____.
Response line: 52

Prompt line: Requested read-out: Emax. Entry: `CN[C@H]1C[C@H]2C[C@@](c3cccc(O)c3)(C1)[C@H](C)CN2CCCc1ccccc1`
Response line: 105

* * *

systemUnderTest: Mu-type opioid receptor (Homo sapiens, UniProt P35372)
Sequence (P35372 whole entry): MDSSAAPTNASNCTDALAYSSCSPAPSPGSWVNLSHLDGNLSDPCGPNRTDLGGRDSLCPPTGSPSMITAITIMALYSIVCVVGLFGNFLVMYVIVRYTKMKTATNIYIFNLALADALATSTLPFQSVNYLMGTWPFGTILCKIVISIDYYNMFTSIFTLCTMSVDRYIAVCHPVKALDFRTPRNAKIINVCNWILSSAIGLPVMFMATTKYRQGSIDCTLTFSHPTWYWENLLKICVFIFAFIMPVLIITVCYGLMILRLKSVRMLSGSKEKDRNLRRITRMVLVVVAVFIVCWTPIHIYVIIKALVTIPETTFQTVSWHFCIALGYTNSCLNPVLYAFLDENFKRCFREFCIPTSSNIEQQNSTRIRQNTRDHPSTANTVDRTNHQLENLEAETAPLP
measurementDescription: Agonist activity at human mu opioid receptor expressed in CHO cells by [35S]GTPgammaS binding assay relative to DAMGO
Assay type: functional, cell-based
Below, each entry is listed with its recorded Emax.
Provide only the numeric value, understood in %.

Guide cases for Emax, answers given:
CCCN[C@H]1C[C@H]2C[C@@](c3cccc(O)c3)(C1)[C@H](C)CN2CCCc1ccccc1	57
C[C@H]1CN(CCCc2ccccc2)[C@@H]2C[C@@H](N)C[C@@]1(c1cccc(O)c1)C2	44

Prompt line: Can you look up the measured Emax of `C[C@@H]1CN(CCCc2ccccc2)[C@H]2C[C@H](N)C[C@]1(c1cccc(O)c1)C2` for me?
Response line: 74
